Provenance of the data: patent US12071414B2

- TARGET OF ASSAY: human apelin receptor (APJ, AGTRL-one, APLNR) (Homo sapiens, UniProt P35414)
- Sequence (P35414 whole entry): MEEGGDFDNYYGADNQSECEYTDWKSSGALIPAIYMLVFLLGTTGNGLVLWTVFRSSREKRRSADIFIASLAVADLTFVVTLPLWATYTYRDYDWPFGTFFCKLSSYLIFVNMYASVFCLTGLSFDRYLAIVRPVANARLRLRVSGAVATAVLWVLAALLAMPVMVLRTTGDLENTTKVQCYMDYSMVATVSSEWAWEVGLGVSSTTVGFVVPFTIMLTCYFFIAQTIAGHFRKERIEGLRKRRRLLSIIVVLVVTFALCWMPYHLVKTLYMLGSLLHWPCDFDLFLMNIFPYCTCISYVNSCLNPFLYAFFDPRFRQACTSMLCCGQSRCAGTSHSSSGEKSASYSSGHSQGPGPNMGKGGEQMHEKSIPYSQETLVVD
- PROTOCOL SUMMARY: cell-based cAMP TR-FRET assay of apelin receptor activation
- EXPERIMENTAL SETUP: CHO cells expressing human APJ, forskolin-stimulated cAMP, 0.5 h incubation, 50% of control (apelin-13, 1 nM) response; read-out: Potency Category (EC50)
pEC50: −log10 of the molar value.
PROPERTY NAME: pEC50

CCS(=O)(=O)c1ccc(C(Oc2ccc(C#N)cc2)C(=O)Nc2nc3ccccc3o2)cc1 (centres unmarked): < 6.30
CCS(=O)(=O)c1ccc(C(Oc2ccc(C#N)cc2)C(=O)Nc2nc3cc(OCc4ccccc4)c(OC)cc3s2)cc1 (centres unmarked): < 6.30
COC(=O)c1ccc(OC(C(=O)Nc2nc3cc(OC)c(OC)cc3s2)c2ccc(C#N)cc2)cc1 (centres unmarked): > 7.30
CCS(=O)(=O)c1ccc(C(Oc2ccc(OC)cc2)C(=O)Nc2nc3c(OC)ccc(OC)c3s2)cc1 (centres unmarked): < 6.30
CCS(=O)(=O)c1ccc(C(OCCOC)C(=O)Nc2nc3cc(OC)c(OC)cc3s2)cc1 (centres unmarked): < 6.30

What does the record list as pEC50 for CCCCS(=O)(=O)c1ccc(C(Oc2ccc(C#N)cc2)C(=O)Nc2nc3cc(OC)c(OC)cc3s2)cc1 (centres unmarked) ?
> 7.30

What does the record list as pEC50 for COc1cc2nc(NC(=O)C(Oc3ccc(C#N)cc3)c3ccc(C(F)(F)F)cc3)sc2cc1OC (centres unmarked) ?
< 6.30

What does the record list as pEC50 for COCCNC(=O)c1ccc(C(Oc2ccc(C#N)cc2)C(=O)Nc2nc3cc(OC)c(OC)cc3o2)cc1 (centres unmarked) ?
7.00 to 7.30

----------
- TARGET OF ASSAY: human apelin receptor (APJ, AGTRL-one, APLNR) (Homo sapiens)
- Construct: host or cells: Chinese hamster ovary cells, stably integrated receptor
- PROTOCOL SUMMARY: cell-based cAMP TR-FRET assay of apelin receptor activation
- EXPERIMENTAL SETUP: CHO cells expressing human APJ, forskolin-stimulated cAMP, 0.5 h incubation, 50% of control (apelin-13, 1 nM) response; read-out: Potency Category (EC50)
PROPERTY NAME: EC50

Example results:
COc1ccc(OC(C(=O)Nc2nc3cc(OC)c(OC)cc3s2)c2cccc(S(=O)(=O)c3ccc(F)cc3)c2)cc1 (centres unmarked): > 0.5 µM
COc1cc2nc(NC(=O)Cc3ccccc3C(=O)N(C)C)sc2cc1OC: > 0.5 µM
CCS(=O)(=O)c1ccc(C(Oc2ccc(C#N)cc2Cl)C(=O)Nc2nc3cc(OC)c(OC)cc3s2)cc1 (centres unmarked): < 0.05 µM
COc1cc2nc(NC(=O)C(Oc3ccc(OCCO)cc3)c3ccc(C#N)cc3)sc2cc1OC (centres unmarked): < 0.05 µM
COc1cc2nc(NC(=O)C(Oc3ccc(C#N)cc3)c3ccccc3S(=O)(=O)c3ccc(F)cc3)sc2cc1OC (centres unmarked): 0.2 to 0.5 µM
COc1cc2nc(NC(=O)C(Oc3ccc(C#N)cc3)c3ccc(OCCN4CCCCC4)cc3)sc2cc1OC (centres unmarked): 0.2 to 0.5 µM

What does the record list as EC50 for CCS(=O)(=O)c1ccc(C(Oc2ccc(C#N)cc2F)C(=O)Nc2nc3cc(OC)c(OC)cc3s2)cc1 (centres unmarked) ?
< 0.05 µM

What does the record list as EC50 for COc1cc2nc(NC(=O)C(Oc3ccc(C#N)cc3)c3ccccc3S(=O)(=O)Cc3ccccc3)sc2cc1OC (centres unmarked) ?
< 0.05 µM

----------
A collection of molecules and their measured pEC50
- TARGET OF ASSAY: human apelin receptor (APJ, AGTRL-one, APLNR) (Homo sapiens, UniProt P35414)
- PROTOCOL SUMMARY: cell-based cAMP TR-FRET assay of apelin receptor activation
- EXPERIMENTAL SETUP: CHO cells expressing human APJ, forskolin-stimulated cAMP, 0.5 h incubation, 50% of control (apelin-13, 1 nM) response; read-out: Potency Category (EC50)
pEC50: −log10 of the molar value.

What does the record list as pEC50 for CCS(=O)(=O)c1ccc(C(OCC(C)C)C(=O)Nc2nc3cc(OC)c(OC)cc3s2)cc1 (centres unmarked) ?
< 6.30

What does the record list as pEC50 for CCS(=O)(=O)c1ccc(C(Oc2ccc(N(C)C)cc2)C(=O)Nc2nc3cc(OC)c(OC)cc3s2)cc1 (centres unmarked) ?
6.30 to 6.70

What does the record list as pEC50 for CCS(=O)(=O)c1ccc(CC(=O)Nc2nc3cc4c(cc3s2)OCCO4)cc1 ?
< 6.30

What does the record list as pEC50 for CCS(=O)(=O)c1ccc(C(Oc2ccc(OC)cc2)C(=O)Nc2nc3ccc4c(c3s2)OCCO4)cc1 (centres unmarked) ?
< 6.30

What does the record list as pEC50 for CCS(=O)(=O)c1ccc([C@H](Oc2ccc(C#N)cc2)C(=O)Nc2nc3cc(OC)c(OC)cc3s2)cc1 ?
6.30 to 6.70

----------
- TARGET OF ASSAY: human apelin receptor (APJ, AGTRL-one, APLNR) (Homo sapiens)
- PROTOCOL SUMMARY: cell-based cAMP TR-FRET assay of apelin receptor activation
- EXPERIMENTAL SETUP: CHO cells expressing human APJ, forskolin-stimulated cAMP, 0.5 h incubation, 50% of control (apelin-13, 1 nM) response; read-out: Potency Category (EC50)
A collection of compounds and their measured EC50

Example results:
CCS(=O)(=O)c1ccc(CC(=O)Nc2nc3cc(OC)c(O)cc3[nH]2)cc1: > 500 nM
COc1cc2nc(NC(=O)C(Oc3ccc(C#N)cc3)c3ccc(C(=O)NCCN4CCCCC4)cc3)oc2cc1OC (centres unmarked): > 500 nM
CCS(=O)(=O)c1ccc(C(Oc2ccc(C#N)cc2)C(=O)Nc2nc3cc4c(cc3s2)OCCO4)cc1 (centres unmarked): > 500 nM
CCS(=O)(=O)c1ccc(C(C)C(=O)Nc2nc3cc(OC)c(OC)cc3s2)cc1 (centres unmarked): > 500 nM

We now examine a further compound.
What does the record list as EC50 for CCS(=O)(=O)c1ccc(C(Oc2ccc(Br)cc2)C(=O)Nc2nc3cc(OC)c(OC)cc3s2)cc1 (centres unmarked) ?
200 to 500 nM

----------
- TARGET OF ASSAY: human apelin receptor (APJ, AGTRL-one, APLNR) (Homo sapiens)
- PROTOCOL SUMMARY: cell-based cAMP TR-FRET assay of apelin receptor activation
- EXPERIMENTAL SETUP: CHO cells expressing human APJ, forskolin-stimulated cAMP, 0.5 h incubation, 50% of control (apelin-13, 1 nM) response; read-out: Potency Category (EC50)
pEC50: −log10 of the molar value.
PROPERTY NAME: pEC50

Example results:
CCOc1ccc(OC(C(=O)Nc2nc3cc(OC)c(OC)cc3s2)c2ccc(S(=O)(=O)CC)cc2)cc1 (centres unmarked): 6.30 to 6.70
COc1cc2nc(NC(=O)C(Oc3ccc(C#N)cc3)c3ccc(S(=O)(=O)Cc4ccccc4)cc3)sc2cc1OC (centres unmarked): 6.30 to 6.70

What does the record list as pEC50 for COc1cc2nc(NC(=O)C(Oc3ccc(C#N)cc3)c3cccc(S(=O)(=O)c4ccc(Cl)cc4)c3)sc2cc1OC (centres unmarked) ?
6.30 to 6.70

What does the record list as pEC50 for CCS(=O)(=O)c1ccc(C(Oc2ccccc2OC)C(=O)Nc2nc3cc(OC)c(OC)cc3s2)cc1 (centres unmarked) ?
< 6.30

What does the record list as pEC50 for CCS(=O)(=O)c1ccc(C(Oc2ccc(C#N)cc2)C(=O)Nc2nc3cc(OC(C)C)c(OC)cc3s2)cc1 (centres unmarked) ?
6.30 to 6.70

What does the record list as pEC50 for COc1cc2nc(NC(=O)C(Oc3ccc(C#N)cc3)c3ccc([N+](=O)[O-])cc3)sc2cc1OC (centres unmarked) ?
> 7.30

What does the record list as pEC50 for COc1cc2nc(NC(=O)Cc3ccc(S(=O)(=O)C4CCCC4)cc3)sc2cc1OC ?
< 6.30

What does the record list as pEC50 for CCS(=O)(=O)c1ccc([C@@H](Oc2ccc(C#N)cc2)C(=O)Nc2nc3cc(OC)c(OC)cc3s2)cc1 ?
6.70 to 7.00

----------
- TARGET OF ASSAY: human apelin receptor (APJ, AGTRL-one, APLNR) (Homo sapiens)
- PROTOCOL SUMMARY: cell-based cAMP TR-FRET assay of apelin receptor activation
- EXPERIMENTAL SETUP: CHO cells expressing human APJ, forskolin-stimulated cAMP, 0.5 h incubation, 50% of control (apelin-13, 1 nM) response; read-out: Potency Category (EC50)
PROPERTY NAME: EC50

Example results:
CCS(=O)(=O)c1ccc(C(Oc2ccc(C#N)cc2)C(=O)Nc2nc3ccc4c(c3s2)OCO4)cc1 (stereo not shown): > 500 nM
CCS(=O)(=O)c1ccc(C(Oc2ccc(C#N)cc2)C(=O)Nc2nc3cc(OC)c(Cl)cc3s2)cc1 (stereo not shown): > 500 nM
CCS(=O)(=O)c1ccc(C(C(=O)Nc2nc3cc(OC)c(OC)cc3s2)N2CCCCC2)cc1 (stereo not shown): > 500 nM
COc1cc2nc(NC(=O)C(Oc3ccc(C#N)cc3)c3ccc(C)cc3)sc2cc1OC (stereo not shown): 50 to 100 nM
CCS(=O)(=O)c1ccc(C(Oc2ccccc2)C(=O)Nc2nc3cc(OC)c(OC)cc3s2)cc1 (stereo not shown): > 500 nM
COc1cc2nc(NC(=O)Cc3cccc(S(=O)(=O)C(C)C)c3)sc2cc1OC: > 500 nM

What does the record list as EC50 for CCCOc1ccc(OC(C(=O)Nc2nc3cc(OC)c(OC)cc3s2)c2ccc(S(=O)(=O)CC)cc2)cc1 (stereo not shown) ?
200 to 500 nM

What does the record list as EC50 for COc1cc2nc(NC(=O)C(Oc3ccc(OCCN(C)C)cc3)c3ccc(C#N)cc3)sc2cc1OC (stereo not shown) ?
100 to 200 nM

What does the record list as EC50 for CCS(=O)(=O)c1ccc(C(Oc2ccc(C#N)cc2)C(=O)Nc2nc3ccc(N4CCOCC4)cc3s2)cc1 (stereo not shown) ?
> 500 nM

What does the record list as EC50 for CCS(=O)(=O)c1ccc(C(Oc2ccc(OC)cc2)C(=O)Nc2nc3cc4c(cc3s2)OCO4)cc1 (stereo not shown) ?
> 500 nM

What does the record list as EC50 for CCS(=O)(=O)c1ccc(C(Oc2ccc(C#N)cc2)C(=O)Nc2nc3cc(C)c(OC)cc3s2)cc1 (stereo not shown) ?
> 500 nM
